Parameter pIC50: see the listing below.
target_desc: UniProt O75716
Sequence (O75716 whole entry): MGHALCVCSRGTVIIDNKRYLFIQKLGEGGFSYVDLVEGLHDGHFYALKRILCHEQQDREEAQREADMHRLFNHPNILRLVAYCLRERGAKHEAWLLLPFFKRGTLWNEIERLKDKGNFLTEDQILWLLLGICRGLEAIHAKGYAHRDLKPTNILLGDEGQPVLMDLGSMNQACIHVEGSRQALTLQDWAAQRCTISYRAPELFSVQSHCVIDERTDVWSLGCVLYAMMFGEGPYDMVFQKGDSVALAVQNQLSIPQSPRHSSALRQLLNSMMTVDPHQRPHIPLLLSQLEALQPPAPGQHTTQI
assay_procedure: pIC50, kinobeads binding competition
assay_conditions: cell material: Lysate mix
I only need the number, thanks.

Reference set, count: 3
>>> recorded_value("CCNC(=O)c1cc(Nc2cc(C)[nH]n2)nc(N2CCN(Cc3ccc(S(=O)(=O)F)cc3)CC2)n1")
4.87
>>> recorded_value("CCNC(=O)c1cc(Nc2cc(C3CC3)[nH]n2)nc(N2CCN(Cc3ccc(S(=O)(=O)F)cc3)CC2)n1")
5.46
>>> recorded_value("C#CCNC(=O)c1cc(Nc2cc(C3CC3)[nH]n2)nc(N2CCN(Cc3ccc(S(=O)(=O)F)cc3)CC2)n1")
5.32

input: Given `C#CCNC(=O)c1cc(Nc2cc(C)[nH]n2)nc(N2CCN(Cc3ccc(S(=O)(=O)F)cc3)CC2)n1` , state its recorded pIC50.
output: 4.89

---

target_desc: UniProt O75385
Sequence (whole entry): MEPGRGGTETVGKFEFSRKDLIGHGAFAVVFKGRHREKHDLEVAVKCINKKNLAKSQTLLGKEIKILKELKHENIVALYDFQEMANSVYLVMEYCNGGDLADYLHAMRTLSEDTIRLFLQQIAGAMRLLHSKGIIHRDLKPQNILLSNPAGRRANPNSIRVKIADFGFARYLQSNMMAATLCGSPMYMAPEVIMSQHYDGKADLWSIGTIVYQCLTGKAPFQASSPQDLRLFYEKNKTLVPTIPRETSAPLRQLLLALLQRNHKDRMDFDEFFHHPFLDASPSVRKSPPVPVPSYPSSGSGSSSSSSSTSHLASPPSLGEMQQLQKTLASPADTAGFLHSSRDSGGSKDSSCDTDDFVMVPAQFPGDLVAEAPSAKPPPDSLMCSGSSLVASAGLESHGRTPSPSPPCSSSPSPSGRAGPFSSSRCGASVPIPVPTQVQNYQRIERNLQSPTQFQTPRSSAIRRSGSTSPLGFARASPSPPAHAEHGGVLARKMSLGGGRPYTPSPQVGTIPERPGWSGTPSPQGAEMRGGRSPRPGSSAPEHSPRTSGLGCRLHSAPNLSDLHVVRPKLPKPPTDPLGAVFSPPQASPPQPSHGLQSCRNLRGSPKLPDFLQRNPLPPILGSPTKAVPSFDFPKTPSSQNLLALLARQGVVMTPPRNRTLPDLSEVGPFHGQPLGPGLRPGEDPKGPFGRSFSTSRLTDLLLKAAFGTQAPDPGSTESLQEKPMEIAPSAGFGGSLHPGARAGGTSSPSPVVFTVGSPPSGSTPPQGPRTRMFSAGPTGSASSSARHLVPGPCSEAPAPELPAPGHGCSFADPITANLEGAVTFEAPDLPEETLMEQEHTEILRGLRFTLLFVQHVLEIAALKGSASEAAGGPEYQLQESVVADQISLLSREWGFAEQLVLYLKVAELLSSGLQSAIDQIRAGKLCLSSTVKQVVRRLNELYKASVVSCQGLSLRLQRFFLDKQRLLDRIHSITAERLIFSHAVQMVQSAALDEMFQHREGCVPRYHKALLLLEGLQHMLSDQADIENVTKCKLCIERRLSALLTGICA
assay_procedure: pIC50, kinobeads binding competition
assay_conditions: cell material: Lysate mix
Parameter pIC50: see the listing below.

>>> recorded_value("O=C(NCCNC(=O)c1cc(Nc2cc(C3CC3)[nH]n2)nc(N2CCN(Cc3ccc(S(=O)(=O)F)cc3)CC2)n1)OC1CC/C=C/CCC1 (stereo unspecified)")
"< 4.52"
>>> recorded_value("CCNC(=O)c1cc(Nc2cc(C3CC3)[nH]n2)nc(N2CCN(Cc3ccc(S(=O)(=O)F)cc3)CC2)n1")
4.9
>>> recorded_value("Cc1cc(Nc2cc(C(=O)NCCNC(=O)OC3CC/C=C/CCC3)nc(N3CCN(Cc4ccc(S(=O)(=O)F)cc4)CC3)n2)n[nH]1 (stereo unspecified)")
"< 4.52"
>>> recorded_value("C#CCNC(=O)c1cc(Nc2cc(C)[nH]n2)nc(N2CCN(Cc3ccc(S(=O)(=O)F)cc3)CC2)n1")
"< 4.52"

input: Given `CCNC(=O)c1cc(Nc2cc(C)[nH]n2)nc(N2CCN(Cc3ccc(S(=O)(=O)F)cc3)CC2)n1` , state its recorded pIC50.
output: < 4.52

input: Given `C#CCNC(=O)c1cc(Nc2cc(C3CC3)[nH]n2)nc(N2CCN(Cc3ccc(S(=O)(=O)F)cc3)CC2)n1` , state its recorded pIC50.
output: 4.85
